Please provide measured Size for the entries that follow.
assay_comment: Particle size and polydispersity index of nanoparticle compositions (Zetasizer Nano ZS)
Type: physicochemical
conditions: Table 1C; compositions for subcutaneous administration
Numbers only, in nm.

[
  {
    "molecule": "CCCCCC/C=C\\COC(=O)CCCCCCCN(CCO)CCCCCCCC(=O)OC(CCCCCCCC)CCCCCCCC",
    "Size [nm]": 88.5
  },
  {
    "molecule": "CCCCCCCCCOC(=O)CCCCCCCN(CCCCCCCC(=O)OC(CCCCCCCC)CCCCCCCC)CCCNC(=O)NC",
    "Size [nm]": 83.7
  },
  {
    "molecule": "CCCCCCCCC(CC)OC(=O)CCCN(CCO)CCCCCCCC(=O)OC(CCCCCCCC)CCCCCCCC (stereo not shown)",
    "Size [nm]": 77.3
  },
  {
    "molecule": "CCCCCCCCC(C)OC(=O)CCCCCN(CCO)CCCCCCCC(=O)OC(CCCCCCCC)CCCCCCCC (stereo not shown)",
    "Size [nm]": 80.2
  },
  {
    "molecule": "CCCCCCCCCOC(=O)CCCCCCCN(CCCCO)CCCCCCCC(=O)OC(CCCCCCCC)CCCCCCCC",
    "Size [nm]": 86.7
  }
]

I would be grateful if you could provide Size for each of the following entries.
1. CCCCCCCCCOC(=O)CCCCCCCN(CCO)CCCCCCCOC(=O)C(CCCCCCCC)CCCCCCCC
2. CCCCCCCCC(CC)OC(=O)CCCCCN(CCO)CCCCCCCC(=O)OC(CCCCCCCC)CCCCCCCC (stereo not shown)

81.7
88.6

====

Please provide measured Lipid Purity, t = 0 for the entries that follow.
assay_comment: Chemical stability of lipids in ethanol at room temperature and 37° C. (lipid purity)
Type: physicochemical
conditions: t = 0
Give bare numbers, in %.

[
  {
    "structure_smiles": "CCCCC/C=C\\C/C=C\\CCCCCCCCN(CCO)CCCCCCCC(=O)OC(CCCCCCCC)CCCCCCCC",
    "observed": 93.80
  }
]

I would be grateful if you could provide Lipid Purity, t = 0 for each of the following entries.
1. CCCCCCCCCCCOC(=O)CCCCCN(CCO)CCCCCCCC(=O)OC(CCCCCCCC)CCCCCCCC
2. CCCCCCCCCOC(=O)CCCCCCCN(CCO)CCCCCCCC(=O)OCCCCCCCCC
3. CCCCCCCCCOC(=O)CCCCCCCN(CCCCCCCC(=O)OC(CCCCCCCC)CCCCCCCC)CCCNC(=O)C(C)(C)COC

[95.58, 97.59, 95.17]

For the molecule shown here, CCCCCCCCCOC(=O)CCCCCCCN(CCCCCCCC(=O)OC(CCCCCCCC)CCCCCCCC)CCN(C)C , give the reported Lipid Purity, t = 0. 92.08

====

Please provide measured hEPO expression for the entries that follow.
System: hEPO mRNA
assay_comment: hEPO expression after intravenous administration to rats
Format: in vivo, rat
conditions: rat, intravenous, 6 h, 2 mpk

[
  {
    "molecule": "CCCCCC/C=C\\COC(=O)CCCCCCCN(CCO)CCCCCCCC(=O)OC(CCCCCCCC)CCCCCCCC",
    "tested_system": "hEPO mRNA",
    "assay_readout": "hEPO expression",
    "observed": "1.44e+07 pg/mL"
  },
  {
    "molecule": "CCCCCCCCCCCOC(=O)CCCCCN(CCO)CCCCCCCC(=O)OC(CCCCCCCC)CCCCCCCC",
    "tested_system": "hEPO mRNA",
    "assay_readout": "hEPO expression",
    "observed": "3.05e+07 pg/mL"
  },
  {
    "molecule": "CCCCCC=CCC=CCCCCCCCCC(CCCCCCCCC=CCC=CCCCCC)OC(=O)CCCN(C)C (stereo not drawn) [MC3, reference compound]",
    "tested_system": "hEPO mRNA",
    "assay_readout": "hEPO expression",
    "observed": "1.33e+07 pg/mL"
  },
  {
    "molecule": "CCCCCCCCCOC(=O)CCCCCCCN(CCO)CCCCCCCC(=O)OC(CCCCCCCC)CCCCCCCC",
    "tested_system": "hEPO mRNA",
    "assay_readout": "hEPO expression",
    "observed": "9.96e+06 pg/mL"
  },
  {
    "molecule": "CCCCCCCCCOC(=O)CCCCCCCN(CCO)CCCCCCCOC(=O)C(CCCCCCCC)CCCCCCCC",
    "tested_system": "hEPO mRNA",
    "assay_readout": "hEPO expression",
    "observed": "1.63e+07 pg/mL"
  }
]

Now take the following molecule into account.
For the molecule shown here, CCCCCCCCCN(CCO)CCCCCCCC(=O)OC(CCCCCCCC)CCCCCCCC , give the reported hEPO expression. 1.74e+07 pg/mL

====

assay_comment: Encapsulation efficiency of RNA in nanoparticle compositions (RIBOGREEN assay)
Type: physicochemical
conditions: Table 1A; lipid:DSPC:cholesterol:PEG-DMG 50:10:38.5:1.5 mol %
assay_readout: EE (%)
One number for each entry, in %.

Here's what some known entries look like.
[
  {
    "molecule": "CCCCCCCC/C=C\\CCCCCCCCN(CCO)CCCCCCCC(=O)OC(CCCCCCCC)CCCCCCCC [Compound 31]",
    "observed": 95.11
  },
  {
    "molecule": "CCCCCCCCCOC(=O)CCCCCCCN(CCCCCCCC(=O)OC(CCCCCCCC)CCCCCCCC)CCC(=O)O [Compound 125]",
    "observed": 79.6
  },
  {
    "molecule": "CCCCCCCCCOC(=O)CCCCCCCN(CCCCCCCC(=O)OC(CCCCCCCC)CCCCCCCC)CCCC(=O)NC [Compound 239]",
    "observed": 90.42
  }
]

Now take the following molecule into account.
For the molecule shown here, CCCCCCCCCOC(=O)CCCCCCCN(CCO)CCCCCCCC(=O)OC(CCCCCC)CCCCCCCC (stereo not shown) [Compound 32] , give the reported EE. 94.87

====

System: modified luciferase
assay_comment: Luciferase expression in liver, lung, spleen and femur 6 hours after intravenous administration to mice
Format: in vivo
conditions: lung, 6 hours after intravenous 0.5 mpk, mice
assay_readout: Total Flux, Lung
Answers are plain numbers.

Here's what some known entries look like.
[
  {
    "compound": "CCCCCCCCCOC(=O)CCCCCCCN(CCO)CCCCCCCC(=O)OC1CCCCCCCCCCCCCC1",
    "Total Flux, Lung": "6.23E+06"
  },
  {
    "compound": "CCCCCCCCC(CCCCCCCC)OC(=O)CCCCCCCN(CCO)CCCC(=O)OCC1CC1CCCCCC (stereo not shown)",
    "Total Flux, Lung": "7.02E+06"
  },
  {
    "compound": "CCCCCC=CCC=CCCCCCCCCC(CCCCCCCCC=CCC=CCCCCC)OC(=O)CCCN(C)C (stereo not shown) [MC3, reference compound]",
    "Total Flux, Lung": "1.27E+07"
  },
  {
    "compound": "CCCCCCCCC(CCCCCCCC)OC(=O)CCCCCCCN(CCO)CCCCCCCC(=O)N(C)CCCCCCCC",
    "Total Flux, Lung": "1.36E+07"
  },
  {
    "compound": "CCCCCCCCC(CCCCCCCC)OC(=O)CCCCCCCN(CCO)CCCCCC(=O)N(C)CCCCCCCC",
    "Total Flux, Lung": "3.88E+06"
  }
]

I would be grateful if you could provide Total Flux, Lung for each of the following entries.
1. CCCCCCCCC(CCCCCCCC)OC(=O)CCCCCCCN(CCO)CCCCCCCC(=O)OCC(CCCCCCC)OC (stereo not shown)
2. CCCCCCCCCOC(=O)CCCCCCCN(CCCCCCCC(=O)OC(CCCCCCCC)CCCCCCCC)CCCNC(=O)NC

3.27E+07
1.83E+06

====

Please provide measured Concentration, Alanine aminotransferase for the entries that follow.
assay_comment: Clinical chemistry and hematology in rat 48 h after intravenous 2 mpk dose
Type: in vivo
conditions: 48 h post dose
One number for each entry.

Here's what some known entries look like.
[
  {
    "compound": "CCCCCC=CCC=CCCCCCCCCC(CCCCCCCCC=CCC=CCCCCC)OC(=O)CCCN(C)C (centres unmarked) [MC3, reference compound]",
    "observed": 339
  },
  {
    "compound": "CCCCCC/C=C\\COC(=O)CCCCCCCN(CCO)CCCCCCCC(=O)OC(CCCCCCCC)CCCCCCCC",
    "observed": 51.5
  }
]

I would be grateful if you could provide Concentration, Alanine aminotransferase for each of the following entries.
1. CCCCCCCCCOC(=O)CCCCCCCN(CCO)CCCCCCCOC(=O)C(CCCCCCCC)CCCCCCCC
2. CCCCCCCCCCCOC(=O)CCCCCN(CCO)CCCCCCCC(=O)OC(CCCCCCCC)CCCCCCCC
3. CCCCCCCCCN(CCO)CCCCCCCC(=O)OC(CCCCCCCC)CCCCCCCC

56
52
53.5
